testedOn: SARS-CoV-2 spike protein receptor binding domain (RBD) (SARS-CoV-2, UniProt P0DTC2 319-539)
protocolNotes: ELISA on coated RBD protein
Listing: EC50 of selected binders
// note: answer is a bare numeric in µg/mL

binder: C068 (antibody, V domains shown) VH: QVQLVESGGGVVQPGRSLRLSCVASGFSFSTYGMHWVRQAPGKGLEWVALIWSDGSNKYYGDAAEGRFTISRDNSNNTLYLQMNNLRAEDTALYYCARDHSSSSFVYYYYMDVWGKGTTVTVSS VL: QSALTQPRSVSGSPGQSVTISCTGTSSDIGGYNYVSWYQQHPDKAPKFIIFDVSKRPSGVPDRFSGSKSGNTASLTISGLQAEDEADYYCCSYAGPYPYVFGTGTKVTVL
valueKind: EC50
unitsText: µg/mL
measuredValue: 0.00546

binder: C055 (antibody, V domains shown) VH: EVQLVESGGGLVQPGGSLRLSCAASGFSVSTKYMTWVRQAPGKGLEWVSVLYSGRTDYYADSVKGRFTISRDSSKNILYLQMSSLRVEDTGFYYCARDSSEVRDHPGHPGRSVGAFDIWSQGTMVTVSS VL: QSALTQPASVSGSPGQSIAISCTGTSNDVGSYTLVSWYQQYPGKAPKLLIFEDSQRSSGISNRFSGSKSGNTASLTISGLRGEDEADYYCCSYAGSHTFVFGGGTKVTVL
valueKind: EC50
unitsText: µg/mL
measuredValue: 0.00125

binder: C060 (antibody, V domains shown) VH: EVQLVESGGGLVQPGGSQRLSCAASGFTVSSNYMSWIRQAPGKGLEWVSVIYSGGSAYYVDSVKGRFTISRDNSKNTLYLQMNSLRPEDTAVYYCARIANYMDVWGKGTTVTVSS VL: EIVMTQSPATLSVSPGERATLSCRASQSVSSHLAWYQQKPGQAPRLLIYGASTRATGIPTRFSGSGSGTEFTLTISSLQSEDFAVYYCQQYNNWPPLTFGGGTKVEIK
valueKind: EC50
unitsText: µg/mL
measuredValue: 0.0435

Could you now look at the following binder, please?
// C069 (antibody, V domains shown) VH: QVQLVQSGAEVKKPGSSVNVSCKASGGTFSTYAIHWVRQAPGQGLEWMGGIIPLFHTANYAQKFQGRVTITADESTSTAYMELSSLRSEDTAMYYCAINTQWDLVPRWGRGTLVTVSS VL: EIVLTQSPGTLSLAPGERATLSCRASQSVNSNYLAWYQQKPGQAPRLLIYGASSRATGIPDRFSGSGSGTDFTLTISRLEPEDFAVYYCQQYGFSLYSFGQGTKLEIK : EC50 value = 0.381

The measured values listed here are drawn from patent US20220195015A1.
